These entries and their values trace back to patent US20220144847A1.

# SYSTEM TESTED: VEGFR2 (Homo sapiens)
# Sequence (P35968 20-1356, species assumed): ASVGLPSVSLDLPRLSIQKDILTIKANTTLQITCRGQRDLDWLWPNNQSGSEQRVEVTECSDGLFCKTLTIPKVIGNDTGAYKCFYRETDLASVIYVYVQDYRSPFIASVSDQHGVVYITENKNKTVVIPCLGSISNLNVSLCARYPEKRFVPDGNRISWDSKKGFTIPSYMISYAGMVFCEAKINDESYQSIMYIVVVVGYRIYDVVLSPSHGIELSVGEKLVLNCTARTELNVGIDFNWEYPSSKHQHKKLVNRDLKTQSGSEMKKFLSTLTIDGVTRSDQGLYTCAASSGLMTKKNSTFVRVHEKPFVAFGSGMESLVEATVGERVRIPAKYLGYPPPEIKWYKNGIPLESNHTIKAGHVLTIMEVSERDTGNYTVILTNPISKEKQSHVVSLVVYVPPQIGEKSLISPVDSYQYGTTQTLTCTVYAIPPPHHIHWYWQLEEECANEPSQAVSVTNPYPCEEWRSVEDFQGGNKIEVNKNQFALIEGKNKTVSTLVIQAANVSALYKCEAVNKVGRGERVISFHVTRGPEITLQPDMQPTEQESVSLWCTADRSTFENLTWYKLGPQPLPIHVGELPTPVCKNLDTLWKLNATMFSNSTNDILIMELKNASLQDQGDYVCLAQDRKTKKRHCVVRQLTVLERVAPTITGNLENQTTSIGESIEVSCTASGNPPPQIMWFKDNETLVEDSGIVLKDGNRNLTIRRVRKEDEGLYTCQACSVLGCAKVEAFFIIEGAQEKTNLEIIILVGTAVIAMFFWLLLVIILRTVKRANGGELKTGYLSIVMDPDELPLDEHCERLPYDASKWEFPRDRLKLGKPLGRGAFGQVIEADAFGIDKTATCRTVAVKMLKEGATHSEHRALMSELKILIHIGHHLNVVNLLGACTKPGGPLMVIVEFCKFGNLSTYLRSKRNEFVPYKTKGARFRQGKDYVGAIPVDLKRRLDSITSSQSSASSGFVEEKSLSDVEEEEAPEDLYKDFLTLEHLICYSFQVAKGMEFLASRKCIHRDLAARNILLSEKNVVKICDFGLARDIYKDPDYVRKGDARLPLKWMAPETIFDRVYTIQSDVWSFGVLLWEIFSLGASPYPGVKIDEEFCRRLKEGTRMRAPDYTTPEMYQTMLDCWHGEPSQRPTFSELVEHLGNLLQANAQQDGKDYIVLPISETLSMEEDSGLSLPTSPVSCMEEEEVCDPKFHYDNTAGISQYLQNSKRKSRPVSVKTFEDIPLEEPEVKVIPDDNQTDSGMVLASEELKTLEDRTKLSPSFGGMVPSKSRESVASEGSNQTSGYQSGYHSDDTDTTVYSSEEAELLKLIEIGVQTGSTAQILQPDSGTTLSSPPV
# ASSAY METHOD TEXT: VEGFR2 inhibition experiment (HTRF KinEASE-TK kit)
# Format: biochemical
# RUN PARAMETERS: 300 nM; read-out: Inhibition rate on VEGFR2
Reported inhibition at 0.3 µM is given for each of the following compounds.
Output spec: scalar in %, unitless text.

The examples below pair each entry with its known result.
* Cc1cc(Nc2cc(C)[nH]n2)nc(-c2ccc(N3CC4CC(C3)N4Cc3ccc(-n4ncc(F)c4C)nc3)nc2)n1 | 67
* Cc1cc(Nc2cc(C)[nH]n2)nc(-c2ccc(N3CC4CC(C3)N4Cc3ccc(-c4cc(F)cnc4C)nc3)nc2)n1 | 5
* Cc1cc(Nc2cc(C)[nH]n2)nc(-c2ccc(N3CC4CC(C3)N4C(=O)c3ccc(-n4cc(F)cn4)nc3)nc2)n1 | 64
* Cc1cc(Nc2cc(C)[nH]n2)nc(-c2ccc(N3CC4CC(C3)N4Cc3ccc(-n4cc(Cl)c(C)n4)nc3)nc2)n1 | 23
* Cc1cc(Nc2cc(C)[nH]n2)nc(-c2ccc(N3CC4CC(C3)N4Cc3ccc(-n4nccc4C(C)C)nc3)nc2)n1 | 62
* Cc1cc(Nc2cc(C)[nH]n2)nc(-c2ccc(N3CC4CC(C3)N4Cc3ccc(-n4cc5c(n4)CCC5)nc3)nc2)n1 | 53

Okay, next one:
GET inhibition at 0.3 µM | system: VEGFR2 (Homo sapiens) | item: `Cc1cc(Nc2cc(C)[nH]n2)nc(-c2ccc(N3CCC(Oc4cncc(F)c4)CC3)nc2)n1`
47

----------
# SYSTEM TESTED: VEGFR2 (Homo sapiens)
# ASSAY METHOD TEXT: VEGFR2 inhibition experiment (HTRF KinEASE-TK kit)
# Assay type: biochemical
# RUN PARAMETERS: 30 nM; read-out: Inhibition rate on VEGFR2
Reported inhibition at 0.03 µM is given for each of the following compounds.
Lab note: write values as number then unit, every time.

The examples below pair each entry with its known result.
* Cc1cc(Nc2cc(C)[nH]n2)nc(-c2ccc(N3CC4CC(C3)N4Cc3ccc(-n4ccc(CO)n4)nc3)nc2)n1 | 26%
* Cc1cc(Nc2cc(C)[nH]n2)nc(-c2ccc(N3CC4CC(C3)N4Cc3ccc(-c4ccc(F)[nH]4)nc3)nc2)n1 | 50%
* Cc1cc(Nc2cc(C)[nH]n2)nc(-c2ccc(N3CC4CC(C3)N4Cc3ccc(-n4nccc4OC4CCC4)nc3)nc2)n1 | 23%
* Cc1cc(Nc2cc(C)[nH]n2)nc(-c2ccc(N3CC4CC(C3)N4Cc3ccc(-n4nccc4OC4CC4)nc3)nc2)n1 | 51%
* Cc1cc(Nc2cc(C)[nH]n2)nc(-c2ccc(N3CC4CC(C3)N4Cc3ccc(-n4ccc(CF)n4)nc3)nc2)n1 | 17%
* Cc1cc(Nc2cc(C)[nH]n2)nc(-c2ccc(N3CC4CC(C3)N4Cc3ccc(-n4cc(F)c(C5CC5)n4)nc3)nc2)n1 | 41%

Okay, next one:
Kindly indicate its recorded inhibition at 0.03 µM. Item: `Cc1cc(Nc2cc(C)[nH]n2)nc(-c2ccc(N3CC4CC(C3)N4Cc3ccc(-n4nccc4C(C)(C)O)nc3)nc2)n1`
18%

----------
Reported IC50 is given for each of the following compounds.
# SYSTEM TESTED: RET-V804M (Homo sapiens, UniProt P07949, V804M)
# Sequence (P07949 29-1114 V804M): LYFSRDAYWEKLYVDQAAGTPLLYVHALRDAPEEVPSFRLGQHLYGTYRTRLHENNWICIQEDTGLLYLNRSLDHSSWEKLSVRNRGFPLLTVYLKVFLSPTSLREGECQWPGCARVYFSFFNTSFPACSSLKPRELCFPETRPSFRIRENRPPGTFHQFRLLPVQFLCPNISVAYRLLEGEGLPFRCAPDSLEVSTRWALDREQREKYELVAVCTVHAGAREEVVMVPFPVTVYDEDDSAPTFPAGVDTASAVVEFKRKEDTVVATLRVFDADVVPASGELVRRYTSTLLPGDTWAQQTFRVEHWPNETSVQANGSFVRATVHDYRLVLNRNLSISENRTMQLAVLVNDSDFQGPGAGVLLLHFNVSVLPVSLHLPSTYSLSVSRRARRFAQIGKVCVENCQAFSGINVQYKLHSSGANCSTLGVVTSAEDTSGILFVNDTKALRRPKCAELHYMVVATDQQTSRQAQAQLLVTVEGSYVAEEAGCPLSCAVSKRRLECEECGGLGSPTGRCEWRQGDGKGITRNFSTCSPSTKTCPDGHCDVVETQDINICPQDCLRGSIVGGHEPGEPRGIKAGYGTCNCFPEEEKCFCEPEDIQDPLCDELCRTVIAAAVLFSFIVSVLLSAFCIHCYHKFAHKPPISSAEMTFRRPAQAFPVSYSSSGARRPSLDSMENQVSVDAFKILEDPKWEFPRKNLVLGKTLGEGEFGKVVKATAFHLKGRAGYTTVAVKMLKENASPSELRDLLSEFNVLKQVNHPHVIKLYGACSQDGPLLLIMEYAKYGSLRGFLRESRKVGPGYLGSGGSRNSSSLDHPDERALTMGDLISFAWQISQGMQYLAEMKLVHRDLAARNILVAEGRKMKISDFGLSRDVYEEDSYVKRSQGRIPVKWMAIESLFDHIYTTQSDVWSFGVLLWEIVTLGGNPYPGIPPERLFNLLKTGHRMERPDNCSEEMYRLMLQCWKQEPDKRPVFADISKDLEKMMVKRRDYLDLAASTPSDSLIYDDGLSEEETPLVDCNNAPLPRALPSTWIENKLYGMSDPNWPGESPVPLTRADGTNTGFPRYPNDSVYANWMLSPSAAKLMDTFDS
# ASSAY METHOD TEXT: RET inhibition experiment (HTRF KinEASE-TK kit), mutant RET-V804M
# Assay type: biochemical
# RUN PARAMETERS: read-out: The IC50 (nM) for inhibiting V804M
# Method: Experimental method: According to the instructions of the HTRF KinEASE-TK kit (Cisbio), the compounds of the present disclosure were tested for their inhibitory effects on the activity of wild-type RET enzyme, mutant RET enzyme (RET-V804M, RET-V804L, and RET-M918T) and fusion-type RET enzyme (RET-CCDCl6). […]
Output spec: scalar in nM, unitless text.

- Cc1cc(Nc2cc(C)[nH]n2)nc(-c2ccc(N3CC4CC(C3)N4Cc3ccc(-n4cccn4)nc3)nc2)n1: 3.77

Kindly indicate its recorded IC50. Item: `Cc1cc(Nc2cc(C)[nH]n2)nc(-c2ccc(N3CC4CC(C3)N4Cc3ccc(-n4nccc4C(C)C)nc3)nc2)n1`
6.94

Kindly indicate its recorded IC50. Item: `Cc1cc(Nc2cc(C)[nH]n2)nc(-c2ccc(N3CC4CC(C3)N4Cc3ccc(-c4ccc[nH]4)nc3)nc2)n1`
1.88

Kindly indicate its recorded IC50. Item: `Cc1cc(Nc2cc(C)[nH]n2)nc(-c2ccc(N3CC4CC(C3)N4Cc3ccc(-n4nccc4C(C)(C)O)nc3)nc2)n1`
2.35

Kindly indicate its recorded IC50. Item: `Cc1cc(Nc2cc(C)[nH]n2)nc(-c2ccc(N3CC4CC(C3)N4Cc3ccc(-n4cc(C)c(C)n4)nc3)nc2)n1`
6.22

Kindly indicate its recorded IC50. Item: `Cc1cc(Nc2cc(C)[nH]n2)nc(-c2ccc(N3CC4CC(C3)N4Cc3ccc(-n4nc(C)cc4C)nc3)nc2)n1`
7.22

Kindly indicate its recorded IC50. Item: `Cc1cc(Nc2cc(C)[nH]n2)nc(-c2ccc(N3CC4CC(C3)N4Cc3ccc(F)cn3)nc2)n1`
41.4

Kindly indicate its recorded IC50. Item: `Cc1ccc(OC2CCN(c3ccc(-c4nc(C)cc(Nc5cc(C)[nH]n5)n4)cn3)CC2)cn1`
14.2

Kindly indicate its recorded IC50. Item: `Cc1cc(Nc2cc(C)[nH]n2)nc(-c2ccc(N3CC4CC(C3)N4Cc3ccc(-n4cc5c(n4)CCC5)nc3)nc2)n1`
6.29

Kindly indicate its recorded IC50. Item: `Cc1cc(Nc2cc(C)[nH]n2)nc(-c2ccc(N3CC4CC(C3)N4Cc3ccc(-n4nccc4C)nc3)nc2)n1`
5.43

Kindly indicate its recorded IC50. Item: Cc1cc(Nc2cc(C)[nH]n2)nc(-c2ccc(N3C[C@H]4C[C@@H](C3)N4C(C)c3ccc(-n4cc(F)cn4)nc3)nc2)n1 (single isomer, unassigned)
13
